Biological target: AChE from electric eel (Electrophorus electricus, UniProt O42275)
Sequence (O42275 24-633): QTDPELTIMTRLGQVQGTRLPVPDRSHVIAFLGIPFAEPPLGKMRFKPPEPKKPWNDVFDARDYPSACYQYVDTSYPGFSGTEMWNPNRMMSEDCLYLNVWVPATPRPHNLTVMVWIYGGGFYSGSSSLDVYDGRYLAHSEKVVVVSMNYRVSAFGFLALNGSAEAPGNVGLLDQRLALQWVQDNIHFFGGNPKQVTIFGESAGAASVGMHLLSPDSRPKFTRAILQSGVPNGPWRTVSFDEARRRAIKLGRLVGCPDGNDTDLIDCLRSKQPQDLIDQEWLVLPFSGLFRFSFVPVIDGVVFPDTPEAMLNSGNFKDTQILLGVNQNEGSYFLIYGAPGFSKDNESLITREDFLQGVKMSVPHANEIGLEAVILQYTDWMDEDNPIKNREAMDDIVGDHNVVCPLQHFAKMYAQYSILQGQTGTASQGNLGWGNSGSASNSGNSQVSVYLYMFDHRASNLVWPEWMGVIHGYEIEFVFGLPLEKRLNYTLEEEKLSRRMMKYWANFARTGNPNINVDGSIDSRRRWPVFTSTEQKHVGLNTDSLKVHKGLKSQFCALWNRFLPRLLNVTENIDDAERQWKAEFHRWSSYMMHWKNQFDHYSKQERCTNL
Test: biochemical
Conditions: read-out: % of inhibition at 25 μg/mL AChE
Outcome label depends on inhibition at 25 µg/mL relative to 5%: at/above gives Met, below gives Not met.

Problem: Tell me whether inhibition at 25 µg/mL is at least 5% here: COc1cccc(CCc2cc(OC)cc(O)c2Cc2ccc(O)cc2)c1 [Compound 1, gymconopin D]
Result: Met

Problem: Next up: COc1c(O)c(Cc2ccc(O)cc2)c2ccc3cc(O)ccc3c2c1OC [Compound 13, bleformin B]
Result: Met

Problem: Next up: COc1cc(O)c(Cc2ccc(O)cc2)c(CCc2cccc(O)c2)c1 [Compound 4, isoarundinin II]
Result: Not met

Problem: Next up: COc1cc(O)cc2c1-c1ccc(Oc3c(O)cc(OC)c4c3ccc3cc(O)ccc34)cc1CC2 [Compound 14, blestrin D]
Result: Met

Problem: Next up: COc1cc(O)c(Cc2ccc(O)cc2)c2ccc3cc(O)ccc3c12 [Compound 10]
Result: Met

Problem: Next up: COc1cc(C2Oc3cc4c(c(OC)c3C2CO)-c2ccc(O)cc2CC4)ccc1O (centres unmarked) [Compound 19]
Result: Not met

Problem: Next up: COc1cc(CCc2cccc(O)c2)cc(O)c1Cc1ccc(O)cc1 [Compound 5]
Result: Not met

====

Target: BChE from equine serum (Equus caballus)
Sequence (P81908 whole entry): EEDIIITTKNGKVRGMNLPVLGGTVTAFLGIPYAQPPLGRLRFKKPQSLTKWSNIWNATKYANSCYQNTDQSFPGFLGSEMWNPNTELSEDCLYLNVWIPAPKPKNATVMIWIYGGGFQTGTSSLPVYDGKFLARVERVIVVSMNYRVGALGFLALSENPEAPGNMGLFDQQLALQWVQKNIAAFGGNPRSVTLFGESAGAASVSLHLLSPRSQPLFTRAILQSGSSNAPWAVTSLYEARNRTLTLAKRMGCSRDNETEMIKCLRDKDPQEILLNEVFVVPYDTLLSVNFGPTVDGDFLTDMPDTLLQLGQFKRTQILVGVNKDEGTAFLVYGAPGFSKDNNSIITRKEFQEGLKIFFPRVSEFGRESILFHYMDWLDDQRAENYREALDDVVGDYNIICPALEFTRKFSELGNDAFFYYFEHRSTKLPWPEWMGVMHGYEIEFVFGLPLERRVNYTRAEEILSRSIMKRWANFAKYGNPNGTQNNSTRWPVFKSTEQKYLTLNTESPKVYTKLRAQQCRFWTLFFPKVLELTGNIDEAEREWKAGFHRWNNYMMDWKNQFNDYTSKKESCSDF
Experiment: biochemical
Assay type: biochemical
Conditions: read-out: % of inhibition at 25 μg/mL BChE
Please respond with reported inhibition at 25 µg/mL for every item in the list.
Write down the numeric answer in % and omit the unit.

Problem: Item COc1cc([C@@H]2Oc3cc4c(cc3[C@H]2CO)-c2c(cc(O)cc2OC)CC4)ccc1O [Compound 18, bletilol D] has what recorded inhibition at 25 µg/mL?
Result: 31.6

Problem: Next up: COc1cc(O)cc(CCc2cccc(O)c2)c1Cc1ccc(O)cc1 [Compound 3]
Result: 51.3

Problem: Next up: COc1cc(Oc2c(O)cc(OC)c3c2CCc2cc(O)ccc2-3)cc2c1-c1ccc(O)cc1CC2 [Compound 15, blestrin A]
Result: 64

Problem: Next up: COc1cc(Oc2c(O)cc(OC)c3c2ccc2cc(O)ccc23)cc2c1-c1ccc(O)cc1CC2 [Compound 16, blestrin C]
Result: 64.3

Problem: Next up: COc1cc(O)c(Cc2ccc(O)cc2)c2ccc3c(Cc4ccc(O)cc4)c(O)ccc3c12 [Compound 12]
Result: 95.4

Problem: Next up: COc1cc(O)c2c(c1Cc1ccc(O)cc1)CCc1cc(O)ccc1-2 [Compound 9, shancidin]
Result: 72.8

====

Molecular target: BChE from equine serum (Equus caballus)
Assay: biochemical
Format: biochemical
Details: read-out: % of inhibition at 25 μg/mL BChE
Please respond with reported inhibition at 25 µg/mL for every item in the list.
Write down the numeric answer in % and omit the unit.

Problem: Item `COc1cc(O)c(-c2c(O)cc(OC)c3c2CCc2cc(O)ccc2-3)c2c1-c1ccc(O)cc1CC2` has what recorded inhibition at 25 µg/mL?
Result: 56.7

Problem: Next up: `COc1cc(O)cc(/C=C\c2cccc(O)c2)c1`
Result: 29.1

Problem: Next up: `COc1c(Cc2ccc(O)cc2)c(O)cc2c1-c1ccc(O)cc1CC2`
Result: 65.7

Problem: Next up: `COc1ccc2c(ccc3c(Cc4ccc(O)cc4)c(O)cc(OC)c32)c1O`
Result: 85.2

Problem: Next up: COc1cc(C2Oc3cc4c(c(OC)c3C2CO)-c2ccc(O)cc2CC4)ccc1O (stereo not shown)
Result: 61.2

Problem: Next up: `COc1cccc(CCc2cc(O)cc(OC)c2Cc2ccc(O)cc2)c1`
Result: 67.7

Problem: Next up: `COc1cc(O)c(Cc2ccc(O)cc2)c(CCc2cccc(O)c2)c1`
Result: 39.3

Problem: Next up: COc1ccc2c3c1O[C@H]1C[C@@H](O)C=C[C@@]31CCN(C)C2 [Galantamine, reference compound]
Result: 64.2

Problem: Next up: `COc1cc([C@@H]2Oc3cc(OC)c4c(c3[C@H]2Cc2c(O)cc(OC)c3c2CCc2cc(O)ccc2-3)CCc2cc(O)ccc2-4)ccc1O`
Result: 8

Problem: Next up: `COc1c(Cc2ccc(O)cc2)c(O)c(Cc2ccc(O)cc2)c2c1-c1ccc(O)cc1CC2`
Result: 53.1

Problem: Next up: `COc1c(O)cc2ccc3c(Cc4ccc(O)cc4)c(O)ccc3c2c1OC`
Result: 70

Problem: Next up: `COc1cc(CCc2cccc(O)c2)cc(O)c1Cc1ccc(O)cc1`
Result: 22.6

Problem: Next up: `COc1cccc(CCc2cc(OC)cc(O)c2Cc2ccc(O)cc2)c1`
Result: 66.2

Problem: Next up: `COc1cc(O)c(Cc2ccc(O)cc2)c2ccc3cc(O)ccc3c12`
Result: 96.6

Problem: Next up: COc1cc(C2COc3cc(OC)c4c(c3C2O)CCc2cc(O)ccc2-4)ccc1O (stereo not shown)
Result: 21.8

Problem: Next up: `COc1c(O)c(Cc2ccc(O)cc2)c2ccc3cc(O)ccc3c2c1OC`
Result: 75.7
